measurementTarget: T1, TBK1 CTD(E696K) (human, UniProt Q9UHD2 677-729, E696K)
T1 sequence: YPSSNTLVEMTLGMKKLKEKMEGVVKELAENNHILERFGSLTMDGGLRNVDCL
assayRemarks: ITC
property: pKd
Formally, pKd is defined as -log10 of the concentration c, with c in mol/L.

Determine its reported pKd: SSDNMQHAYWELKREMSNLHLVTQVQAELLRKLKTSTAIK (domain or fragment) [NAP1 TBD (residues 215–254)]
6.18
